Let's look at some substances and their measured migration inhibition rate.
System: MGC803 cells of stomach cancer
method: transwell migration test
Assay type: cell-based, human
condition_notes: dose 4 μM, 24 h
No end group written: not given here.
A number alone suffices; assume %.

substance	metric_name	experimental_value
MERAGVPGFSPRRSSVEAKMQSTSCSVRKSSTVTAWPAVVLLLSWGQRRGG-OH [HMMW-I]	migration inhibition rate	53.45
MGRAGVPGFSPRRSSVEAKMQSTSCSVRKSSTVTAWPAVVLLLSWGQRRGG-OH [HMMW-IX]	migration inhibition rate	51.45
MERAGVPGFSPRRSSVEAKMQSTSCSVRKSSTVTAWPAVVLLLSWGKDDEE-OH [HMMW-IV]	migration inhibition rate	52.45

MERAGVPGFSPRRSSVEAKMQSTSCSVRKSSTVTAWPAVVLLLSWGQRDEE-OH [HMMW-VI] has a reported migration inhibition rate of 51.45

MGSTYNPGFSPRRSSVEAKMQSTSCSVRKSSTVTAWPAVVLLLSWGQRRGG-OH [HMMW-V] has a reported migration inhibition rate of 54.41

MGSTYNKRHSPRRSSVEAKMQSTSCSVRKSSTVTAWPAVVLLLSWGQRRGG-OH [HMMW-III] has a reported migration inhibition rate of 52.45

MERAGVPGFSPRRSSVEAKMQSTSCSVRKSSTVTAWPAVVLLLSWGQRRGE-OH [HMMW-VIII] has a reported migration inhibition rate of 53.43

MGSTGVPGFSPRRSSVEAKMQSTSCSVRKSSTVTAWPAVVLLLSWGQRRGG-OH [HMMW-VII] has a reported migration inhibition rate of 51.31

MERAGVPGFSPRRSSVEAKMQSTSCSVRKSSTVTAWPAVVLLLHTSKDDEE-OH [HMMW-II] has a reported migration inhibition rate of 52.41

* * *

Let's look at some substances and their measured invasion inhibition rate.
System: A549 cells of lung cancer
method: Matrigel transwell invasion test
Assay type: cell-based, human
condition_notes: dose 4 μM, 24 h
No end group written: not given here.
A number alone suffices; assume %.

Past entries and their recorded results:
substance	experimental_value
MGSTGVPGFSPRRSSVEAKMQSTSCSVRKSSTVTAWPAVVLLLSWGQRRGG-OH [HMMW-VII]	52.42
MGSTYNKRHSPRRSSVEAKMQSTSCSVRKSSTVTAWPAVVLLLSWGQRRGG-OH [HMMW-III]	52.30
MERAGVPGFSPRRSSVEAKMQSTSCSVRKSSTVTAWPAVVLLLSWGKDDEE-OH [HMMW-IV]	56.11
MERAGVPGFSPRRSSVEAKMQSTSCSVRKSSTVTAWPAVVLLLSWGQRDEE-OH [HMMW-VI]	56.32
MGSTYNPGFSPRRSSVEAKMQSTSCSVRKSSTVTAWPAVVLLLSWGQRRGG-OH [HMMW-V]	51.27

Turning to the following substance.
MERAGVPGFSPRRSSVEAKMQSTSCSVRKSSTVTAWPAVVLLLSWGQRRGE-OH [HMMW-VIII] has a reported invasion inhibition rate of 55.20

* * *

Let's look at some substances and their measured in vivo tumor growth inhibition rate.
Test system: A431 cells of skin cancer
Assay type: in vivo, BALB/c nude mice
condition_notes: mouse, in vivo, 15 mg/kg
No end group written: not given here.
A number alone suffices; assume %.

substance	assay_target	in vivo tumor growth inhibition rate, %
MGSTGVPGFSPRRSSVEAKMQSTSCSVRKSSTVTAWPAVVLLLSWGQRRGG-OH [HMMW-VII]	A431 cells of skin cancer	67.70

Log: A431 cells of skin cancer, substance MERAGVPGFSPRRSSVEAKMQSTSCSVRKSSTVTAWPAVVLLLSWGKDDEE-OH [HMMW-IV] , in vivo tumor growth inhibition rate = 71.71

Log: A431 cells of skin cancer, substance MERAGVPGFSPRRSSVEAKMQSTSCSVRKSSTVTAWPAVVLLLSWGQRRGE-OH [HMMW-VIII] , in vivo tumor growth inhibition rate = 68.21

Log: A431 cells of skin cancer, substance MERAGVPGFSPRRSSVEAKMQSTSCSVRKSSTVTAWPAVVLLLSWGQRRGG-OH [HMMW-I] , in vivo tumor growth inhibition rate = 62.74

Log: A431 cells of skin cancer, substance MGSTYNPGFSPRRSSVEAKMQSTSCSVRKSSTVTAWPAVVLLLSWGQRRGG-OH [HMMW-V] , in vivo tumor growth inhibition rate = 69.41

Log: A431 cells of skin cancer, substance MGSTYNKRHSPRRSSVEAKMQSTSCSVRKSSTVTAWPAVVLLLSWGQRRGG-OH [HMMW-III] , in vivo tumor growth inhibition rate = 69.54

* * *

Let's look at some substances and their measured invasion inhibition rate.
Tested on: MGC803 cells of stomach cancer
method: Matrigel transwell invasion test
Format: cell-based, human
condition_notes: dose 16 μM, 24 h
No end group written: not given here.
// return the numeric value with its unit appended

Past entries and their recorded results:
substance	assay_target	metric_name	experimental_value
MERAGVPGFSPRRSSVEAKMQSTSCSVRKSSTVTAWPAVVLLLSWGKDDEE-OH [HMMW-IV]	MGC803 cells of stomach cancer	invasion inhibition rate	63.49%
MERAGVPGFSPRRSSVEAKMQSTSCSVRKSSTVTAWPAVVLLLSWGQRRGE-OH [HMMW-VIII]	MGC803 cells of stomach cancer	invasion inhibition rate	70.60%
MGRAGVPGFSPRRSSVEAKMQSTSCSVRKSSTVTAWPAVVLLLSWGQRRGG-OH [HMMW-IX]	MGC803 cells of stomach cancer	invasion inhibition rate	68.35%

MERAGVPGFSPRRSSVEAKMQSTSCSVRKSSTVTAWPAVVLLLHTSKDDEE-OH [HMMW-II] has a reported invasion inhibition rate of 66.51%

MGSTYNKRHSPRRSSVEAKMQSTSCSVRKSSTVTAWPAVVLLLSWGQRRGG-OH [HMMW-III] has a reported invasion inhibition rate of 67.61%

* * *

Let's look at some substances and their measured invasion inhibition rate.
System: MGC803 cells of stomach cancer
method: Matrigel transwell invasion test
Assay type: cell-based, human
condition_notes: dose 4 μM, 24 h
No end group written: not given here.
A number alone suffices; assume %.

substance	assay_target	invasion inhibition rate [%]
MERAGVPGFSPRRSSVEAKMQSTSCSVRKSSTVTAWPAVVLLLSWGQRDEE-OH [HMMW-VI]	MGC803 cells of stomach cancer	54.19
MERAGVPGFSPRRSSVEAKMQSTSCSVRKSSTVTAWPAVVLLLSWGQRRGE-OH [HMMW-VIII]	MGC803 cells of stomach cancer	57.18

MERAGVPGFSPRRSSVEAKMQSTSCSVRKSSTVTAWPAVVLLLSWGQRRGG-OH [HMMW-I] has a reported invasion inhibition rate of 50.08

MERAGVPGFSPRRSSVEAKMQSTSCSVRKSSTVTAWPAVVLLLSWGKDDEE-OH [HMMW-IV] has a reported invasion inhibition rate of 54.21

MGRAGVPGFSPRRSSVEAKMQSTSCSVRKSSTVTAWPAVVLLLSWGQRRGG-OH [HMMW-IX] has a reported invasion inhibition rate of 57.19

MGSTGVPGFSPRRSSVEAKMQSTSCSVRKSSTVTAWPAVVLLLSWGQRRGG-OH [HMMW-VII] has a reported invasion inhibition rate of 54.34

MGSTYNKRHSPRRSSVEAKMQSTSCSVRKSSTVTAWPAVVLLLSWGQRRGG-OH [HMMW-III] has a reported invasion inhibition rate of 53.38

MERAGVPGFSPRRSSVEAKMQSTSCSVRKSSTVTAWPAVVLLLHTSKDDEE-OH [HMMW-II] has a reported invasion inhibition rate of 51.04

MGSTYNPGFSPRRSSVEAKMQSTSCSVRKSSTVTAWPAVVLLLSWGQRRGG-OH [HMMW-V] has a reported invasion inhibition rate of 50.24

* * *

System: A549 cells of lung cancer
Type: in vivo, BALB/c nude mice
condition_notes: mouse, in vivo, 15 mg/kg
No end group written: not given here.
Respond with true for in vivo tumor growth inhibition rate values of 70% and above, false for values below.

substance	class_label
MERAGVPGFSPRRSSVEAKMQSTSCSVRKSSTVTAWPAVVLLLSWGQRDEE-OH [HMMW-VI]	false

Below: the item to evaluate.
query: Given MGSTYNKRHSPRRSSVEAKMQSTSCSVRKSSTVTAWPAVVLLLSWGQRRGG-OH [HMMW-III] , state whether its in vivo tumor growth inhibition rate is at least 70%.
result: true

* * *

Let's look at some substances and their measured invasion inhibition rate.
Tested on: SCC4 cells of head and neck cancer
method: Matrigel transwell invasion test
Format: cell-based, human
condition_notes: dose 4 μM, 24 h
No end group written: not given here.
A number alone suffices; assume %.

Past entries and their recorded results:
substance	assay_target	experimental_value
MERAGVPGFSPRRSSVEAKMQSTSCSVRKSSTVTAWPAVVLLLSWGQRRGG-OH [HMMW-I]	SCC4 cells of head and neck cancer	46.24
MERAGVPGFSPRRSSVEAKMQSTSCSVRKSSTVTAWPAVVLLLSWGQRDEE-OH [HMMW-VI]	SCC4 cells of head and neck cancer	47.82
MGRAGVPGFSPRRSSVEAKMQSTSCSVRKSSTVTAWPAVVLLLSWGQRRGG-OH [HMMW-IX]	SCC4 cells of head and neck cancer	48.82
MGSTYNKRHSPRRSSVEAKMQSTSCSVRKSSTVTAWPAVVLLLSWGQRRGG-OH [HMMW-III]	SCC4 cells of head and neck cancer	48.24
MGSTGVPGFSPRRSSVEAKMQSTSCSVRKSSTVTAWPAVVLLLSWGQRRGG-OH [HMMW-VII]	SCC4 cells of head and neck cancer	43.11

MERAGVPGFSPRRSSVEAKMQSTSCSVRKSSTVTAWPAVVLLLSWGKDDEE-OH [HMMW-IV] has a reported invasion inhibition rate of 47.34

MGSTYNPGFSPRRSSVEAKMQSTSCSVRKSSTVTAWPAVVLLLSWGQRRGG-OH [HMMW-V] has a reported invasion inhibition rate of 46.26

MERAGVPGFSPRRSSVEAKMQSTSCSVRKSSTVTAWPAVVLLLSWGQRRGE-OH [HMMW-VIII] has a reported invasion inhibition rate of 49.14

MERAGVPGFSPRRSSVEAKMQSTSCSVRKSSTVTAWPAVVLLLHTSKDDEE-OH [HMMW-II] has a reported invasion inhibition rate of 45.14
